# Tested on: HIV-1 isolates, WT
# assay: In vitro drug sensitivity of HIV-1 laboratory isolates, WT
# Assay type: cell-based
# condition description: Human immunodeficiency virus 1; HIV-1 isolate WT
Field: label. Allowed values: y (IC50 < 4 nM) or n (IC50 >= 4 nM).

For orientation, consider the following solved cases.
| molecule | target under test | label |
| --- | --- | --- |
| CC(C)CN(CC(O)C(Cc1ccccc1)NC(=O)OC1COC2OCCC12)S(=O)(=O)c1ccc2onc(CNCC(F)(F)C(F)(F)F)c2c1 (stereo not shown) | HIV-1 isolates, WT | n |
| CC(C)CN(CC(O)C(Cc1ccccc1)NC(=O)OC1COC2OCCC12)S(=O)(=O)c1ccc2onc(CNCCOc3ccccc3)c2c1 (stereo not shown) | HIV-1 isolates, WT | n |
| CCOC(=O)N(CCOC)Cc1noc2ccc(S(=O)(=O)N(CC(C)C)CC(O)C(Cc3ccccc3)NC(=O)OC3COC4OCCC34)cc12 (stereo not shown) | HIV-1 isolates, WT | y |
| CCS(=O)(=O)NCc1noc2ccc(S(=O)(=O)N(CC(C)C)CC(O)C(Cc3ccccc3)NC(=O)OC3COC4OCCC34)cc12 (stereo not shown) | HIV-1 isolates, WT | n |
| CC(C)CN(CC(O)C(Cc1ccccc1)NC(=O)OC1COC2OCCC12)S(=O)(=O)c1ccc2onc(CNC3CCCC3)c2c1 (stereo not shown) | HIV-1 isolates, WT | n |

Check if IC50 falls below 4 nM for CC(=O)NCc1noc2ccc(S(=O)(=O)N(CC(C)C)CC(O)C(Cc3ccccc3)NC(=O)OC3COC4OCCC34)cc12 (stereo not shown) .
n

Another molecule to check: CC(C)CN(CC(O)C(Cc1ccccc1)NC(=O)OC1COC2OCCC12)S(=O)(=O)c1ccc2onc(CN)c2c1 (stereo not shown)
n

Follow-up entry: CC(C)CN(CC(O)C(Cc1ccccc1)NC(=O)OC1COC2OCCC12)S(=O)(=O)c1ccc2onc(CNCC3CCCCC3)c2c1 (stereo not shown)
n

Next up: CC(C)CN(CC(O)C(Cc1ccccc1)NC(=O)OC1COC2OCCC12)S(=O)(=O)c1ccc2onc(CNCc3ccc4occc4c3)c2c1 (stereo not shown)
n

Entry CCOC(=O)NCc1noc2ccc(S(=O)(=O)N(CC(C)C)CC(O)C(Cc3ccccc3)NC(=O)OC3COC4OCCC34)cc12 (stereo not shown) please
y

---

# target under test: HIV-1 protease Mutant 9 (Human immunodeficiency virus type 1)
# assay: Ki against HIV-1 protease Mutant 9
# Assay type: biochemical
# condition description: HIV-1 protease Mutant 9
property measured: Ki

Check out these entries, answers already filled in.
| molecule | Ki |
| --- | --- |
| CC(=O)NCc1noc2ccc(S(=O)(=O)N(CC(C)C)CC(O)C(Cc3ccccc3)NC(=O)OC3COC4OCCC34)cc12 (stereo not drawn) | < 0.1 nM |
| CCCC[S+]([O-])Cc1noc2ccc(S(=O)(=O)N(CC(C)C)CC(O)C(Cc3ccccc3)NC(=O)OC3COC4OCCC34)cc12 (stereo not drawn) | < 0.1 nM |

Now look at this one.
# lookup: Ki of CCOC(=O)NCc1noc2ccc(S(=O)(=O)N(CC(C)C)CC(O)C(Cc3ccccc3)NC(=O)OC3COC4OCCC34)cc12 (stereo not drawn)
< 0.1 nM

---

Some compounds, each annotated with its measured pIC50.
# Tested on: HIV-1 isolates, WT
# assay: In vitro drug sensitivity of HIV-1 laboratory isolates, WT
# Assay type: cell-based
# condition description: Human immunodeficiency virus 1; HIV-1 isolate WT
Please treat pIC50 as minus the base-10 logarithm of the molar concentration.

In the examples that follow, each entry is paired with its recorded pIC50.
| compound | property measured | numeric result |
| --- | --- | --- |
| COCCNCc1noc2ccc(S(=O)(=O)N(CC(C)C)CC(O)C(Cc3ccccc3)NC(=O)OC3COC4OCCC34)cc12 (stereo not drawn) | pIC50 | 8.40 |
| CC(=O)OCc1noc2ccc(S(=O)(=O)N(CC(C)C)CC(O)C(Cc3ccccc3)NC(=O)OC3COC4OCCC34)cc12 (stereo not drawn) | pIC50 | 8.00 |
| CC(C)CN(CC(O)C(Cc1ccccc1)NC(=O)OC1COC2OCCC12)S(=O)(=O)c1ccc2onc(CNC(=O)C(F)(F)C(F)(F)F)c2c1 (stereo not drawn) | pIC50 | 8.08 |
| CC(C)CN(CC(O)C(Cc1ccccc1)NC(=O)OC1COC2OCCC12)S(=O)(=O)c1ccc2onc(CNCC(F)(F)F)c2c1 (stereo not drawn) | pIC50 | 8.66 |
| CC(C)CN(CC(O)C(Cc1ccccc1)NC(=O)OC1COC2OCCC12)S(=O)(=O)c1ccc2onc(CNC(=O)c3ccccc3)c2c1 (stereo not drawn) | pIC50 | 8.15 |

What measured pIC50 goes with CC(C)CN(CC(O)C(Cc1ccccc1)NC(=O)OC1COC2OCCC12)S(=O)(=O)c1ccc2onc(CNC(=O)OC(C)C)c2c1 (stereo not drawn) ?
8.30
